molecular target: serotonin reuptake sites (Rattus norvegicus, UniProt P31652); construct: homogenates prepared from rat cortical membranes; from tissue; host or cells: rat cortical membranes; test: displacement of [3H]paroxetine binding in rat cortical membrane homogenates; settings: rat cortical membranes, mean ± SEM; read-out: displacement of [3H]paroxetine IC50
Sequence (P31652 whole entry): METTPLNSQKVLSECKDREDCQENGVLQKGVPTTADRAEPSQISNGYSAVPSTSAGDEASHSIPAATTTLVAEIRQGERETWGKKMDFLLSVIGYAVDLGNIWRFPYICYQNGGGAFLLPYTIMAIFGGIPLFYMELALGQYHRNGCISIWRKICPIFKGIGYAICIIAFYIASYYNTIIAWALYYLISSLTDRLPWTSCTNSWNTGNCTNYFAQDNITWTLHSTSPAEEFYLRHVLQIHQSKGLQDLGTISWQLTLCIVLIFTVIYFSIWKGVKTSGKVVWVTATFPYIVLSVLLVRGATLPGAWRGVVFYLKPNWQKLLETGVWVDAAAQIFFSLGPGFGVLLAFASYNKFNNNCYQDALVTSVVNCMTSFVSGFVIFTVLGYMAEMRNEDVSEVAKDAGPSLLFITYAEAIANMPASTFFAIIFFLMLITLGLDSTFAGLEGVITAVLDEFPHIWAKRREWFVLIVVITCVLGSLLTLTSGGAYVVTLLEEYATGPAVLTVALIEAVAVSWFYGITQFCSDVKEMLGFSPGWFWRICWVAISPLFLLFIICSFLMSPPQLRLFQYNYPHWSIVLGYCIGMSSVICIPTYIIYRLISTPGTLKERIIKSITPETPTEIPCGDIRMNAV
PROPERTY MEASURED: IC50 (nM)
Field: numeric (nM). Do not append units.

What value of IC50 has been recorded for this entry: COC(=O)C1C(c2ccc(I)cc2)CC2CCC1N2C (stereo not shown)
210

###

target: serotonin reuptake sites (Rattus norvegicus, UniProt P31652); construct: homogenates prepared from rat cortical membranes; from tissue; host or cells: rat cortical membranes; experiment: displacement of [3H]paroxetine binding in rat cortical membrane homogenates
Listed here: items and their measured IC50.
Field: numeric (nM). Do not append units.

What value of IC50 has been recorded for this entry: COC(=O)[C@H]1[C@@H](c2ccc(F)cc2)C[C@@H]2CC[C@H]1N2C [compound 2, reference compound]
479

Continuing:
What value of IC50 has been recorded for this entry: COC(=O)[C@H]1[C@@H](c2ccc(I)cc2)C[C@@H]2CC[C@H]1N2C [compound 3a, 2β-carbomethoxy-3β-(4-iodophenyl)tropane]
3.78

###

biological target: 5-HTT (5-HT transporter) (Rattus norvegicus, UniProt P31652); construct: or frontoparietal cerebral cortex (for 5-HTT and NET); from tissue; host or cells: rat brain frontoparietal cerebral cortex, crude membrane fraction; assay: 5-HTT assay, [3H]paroxetine binding, rat frontoparietal cerebral cortex membranes
PROPERTY MEASURED: pKi
In simple prose, pKi is minus the logarithm base ten of a concentration in moles per litre.

What value of pKi has been recorded for this entry: COC(=O)[C@H]1[C@@H](c2ccc(I)cc2)C[C@@H]2CC[C@H]1N2C [compound 3a, 2β-carbomethoxy-3β-(4-iodophenyl)tropane]
9.34

Shift focus to the following entry.
What value of pKi has been recorded for this entry: COC(=O)[C@H]1[C@@H](c2ccc(F)cc2)C[C@@H]2CC[C@H]1N2C [compound 2, reference compound]
6.74

###

target: 5-HTT (5-HT transporter) (Rattus norvegicus); construct: or frontoparietal cerebral cortex (for 5-HTT and NET); from tissue; host or cells: rat brain frontoparietal cerebral cortex, crude membrane fraction; experiment: 5-HTT assay, [3H]paroxetine binding, rat frontoparietal cerebral cortex membranes; conditions: [3H]paroxetine 0.2 nM, rat cerebral cortex, 60 min 20° C.; read-out: affinity (Ki) 5-HTT
PROPERTY MEASURED: Ki (nM)
Field: numeric (nM). Do not append units.

What value of Ki has been recorded for this entry: COC(=O)[C@H]1[C@@H](c2ccc(I)cc2)C[C@@H]2CC[C@H]1N2CCCN1C(=O)c2ccccc2C1=O [Example 10, N-phthalimidopropyl-β-CIT]
0.59
